# assay_name: qHTS assay to identify small molecule agonists of the endoplasmic reticulum stress response signaling pathway (AID 1159516)
# settings: ESRE-bla HeLa, ER stress beta-lactamase reporter, 5 h; series mostly up to 61 µM
Inconclusive results are not listed. Activity calls are given as the source filed them. The call rests on the fitted dose curve; in most records, active means well fitted activation curve with a large enough effect in the signal ratio in the repeat runs (not every such curve was filed as active); inconclusive means weak or mixed curves, or effect the other way; inactive means flat fitted curve, though single readings scatter; the % refers to the signal ratio.
quantity_name: activation

Some solved cases for reference:
INSERT INTO measurements (compound, quantity_name, measured_result) VALUES
  ('CCCCCCCCCCl', 'activation', 'inactive'),
  ('O=C1CCCC(=O)O1', 'activation', 'inactive'),
  ('Cc1ccccc1OCC(O)CO (centres undefined)', 'activation', 'inactive'),
  ('O=C1c2cccc3c2[C@H](CCC3)CN1[C@@H]1CN2CCC1CC2', 'activation', 'inactive');

Query: Quick one: activation of CC(C)(C)NC(N)=O ?
Result: inactive

Query: Look up activation for this compound: O=C(NCCc1c[nH]c2ccccc12)c1cccnc1
Result: inactive
